- method: Clearance in rat
- Assay type: ADME, organism-based
- assay setup: in vivo
Numbered stars: 1 amine (or outer) side, 2 acyl side, 3 side chain; on linkers, the order of the positions; unused ones are H or OH. Square brackets hold non-standard residues; d marks the D form. Peptide text beside a SMILES is read from it. * marks the point of attachment. Pro(3R,4S-CMe2) = CC1(C)[C@@H]2[C@@H](C(=O)O)NC[C@@H]21; X1 = O=C(C(=O)[*:2])C(CC1CC1)N[*:1]; Phg = N[C@H](C(=O)O)c1ccccc1; Tle = CC(C)(C)[C@H](N)C(=O)O; Boc = CC(C)(C)OC(=O)*
property: clearance (mL/min/kg)
Answers are plain numbers, in mL/min/kg.

Challenge: Tell me measured clearance for CN(C)C(=O)[C@@H](NC(=O)CNC(=O)C(=O)C(CC1CC1)NC(=O)[C@@H]1[C@@H]2[C@H](CN1C(=O)[C@@H](NC(=O)OC(C)(C)C)C(C)(C)C)C2(C)C)c1ccccc1 (stereo partly drawn) (Boc-[Tle][Pro(3R,4S-CMe2)][X1]G[Phg]-NMe2) please.
Response given: 24
